Measured melting point, listed per entry for reference.

Reference set, count: 3
>>> df
                                   compound  measurement_type  value_reported
0  CCc1ccc(Nc2c(F)c(F)cc(F)c2F)c(CC(=O)OCC(=O)O)c1 [6(a)]     melting point   151 to 153 °C
1  Cc1ccc(Nc2c(C)cc(F)cc2Cl)c(CC(=O)O)c1 [Example 1(i)]     melting point   154 to 156 °C
2  CCc1ccc(Nc2c(C)cc(Cl)cc2Cl)c(CC(=O)OCC(=O)O)c1 [Example 6(b)]     melting point   123 to 125 °C

IN: Look up melting point: Cc1ccc(Nc2c(Cl)cccc2Cl)c(CC(=O)O)c1 [Example 1(c)]
OUT: 168 to 170 °C

IN: Cool, now Cc1ccc(Nc2c(Cl)cccc2Cl)c(CC(=O)OCC(=O)O)c1 [Example 6(h)]
OUT: 125 to 126 °C

IN: Cool, now CCc1ccc(Nc2c(F)cc(Cl)cc2Cl)c(CC(=O)O)c1 [Example 2(f)]
OUT: 169 to 171 °C

IN: Cool, now CCc1ccc(Nc2c(Cl)cccc2Cl)c(CC(=O)OCC(=O)O)c1 [Example 6(c)]
OUT: 124 to 126 °C

IN: Cool, now Cc1ccc(Nc2c(F)cc(O)cc2Cl)c(CC(=O)O)c1 [Example 1(j)]
OUT: 180 to 182 °C

IN: Cool, now CCc1ccc(Nc2c(Cl)cccc2Cl)c(CC(=O)O)c1 [Example 3(c)]
OUT: 133 to 136 °C

IN: Cool, now CCc1ccc(Nc2c(F)cccc2Cl)c(CC(=O)O)c1 [Example 2(a)]
OUT: 147 to 148 °C

###

Measured melting point, listed per entry for reference.

Reference set, count: 3
                                   compound  value_reported
0  Cc1cc(Cl)c(Nc2ccc(C)cc2CC(=O)O)c(Cl)c1 [Example 1(e)]   179 to 182 °C
1  CCc1ccc(Nc2c(F)cc(F)cc2Cl)c(CC(=O)O)c1 [Example 2(e)]   160 to 162 °C
2  CCOc1c(F)c(F)c(Nc2ccc(CC)cc2CC(=O)O)c(F)c1F [Example 2(d)]   131 to 132 °C

IN: Look up melting point: Cc1ccc(Nc2c(F)cccc2C(F)(F)F)c(CC(=O)O)c1 [Example 9(a)]
OUT: 155 to 156 °C

IN: Cool, now Cc1ccc(Nc2c(C)cccc2Cl)c(CC(=O)O)c1 [Example 1(f)]
OUT: 138 to 140 °C

IN: Cool, now CCc1ccc(Nc2c(C)cccc2Cl)c(CC(=O)O)c1 [Example 2(b)]
OUT: 125 to 126 °C

IN: Cool, now Cc1ccc(Nc2c(F)cc(Cl)cc2Cl)c(CC(=O)O)c1 [Example 1(h)]
OUT: 178 to 180 °C

###

Measured melting point, listed per entry for reference.

In [3]: df
Out[3]:
                                   molecule  value_reported
0  CCc1ccc(Nc2c(F)cc(F)cc2Cl)c(CC(=O)OCC(=O)O)c1   142 to 144 °C
1  CCc1ccc(Nc2c(F)c(F)cc(F)c2F)c(CC(=O)OC(C)(C)C(=O)O)c1   104 to 108 °C
2    CCc1ccc(Nc2c(C)cc(F)cc2Cl)c(CC(=O)O)c1   151 to 154 °C

IN: Look up melting point: `Cc1ccc(Nc2c(F)c(F)cc(F)c2F)c(CC(=O)O)c1`
OUT: 153 to 156 °C

IN: Cool, now `Cc1ccc(Nc2c(F)cccc2Cl)c(CC(=O)OCC(=O)O)c1`
OUT: 96 to 98 °C

IN: Cool, now `CCc1ccc(Nc2c(C)cc(Cl)cc2Cl)c(CC(=O)O)c1`
OUT: 180 to 183 °C

IN: Cool, now `Cc1ccc(Nc2c(F)cc(F)cc2Cl)c(CC(=O)O)c1`
OUT: 157 to 159 °C

IN: Cool, now `Cc1ccc(Nc2c(F)cc(Cl)cc2Cl)c(CC(=O)OCC(=O)O)c1`
OUT: 148 to 150 °C

IN: Cool, now CCc1ccc(Nc2c(F)cc(Cl)cc2Cl)c(CC(=O)OCC(=O)O)c1 [Example 6(e)]
OUT: 132 to 134 °C

IN: Cool, now `CCc1ccc(Nc2c(F)ccc(F)c2F)c(CC(=O)O)c1`
OUT: 138 to 140 °C

IN: Cool, now `CCc1ccc(Nc2c(F)cccc2Cl)c(CC(=O)OCC(=O)O)c1`
OUT: 106 to 108 °C

IN: Cool, now `CCc1ccc(Nc2c(C)cc(F)cc2F)c(CC(=O)O)c1`
OUT: 143 to 145 °C

The measurements presented in this section are drawn from patent US7115662B2.
